Sourced from the supplement of paper PMC9112550

# System: Escherichia coli TOP10
# assay overview: shrunken log2 fold change of peptide-encoding DNA abundance (4.5 h post-induction vs induction); higher = less antimicrobial activity (less host growth inhibition)
# assay context: time post-induction: 4.5 h; library: site-saturation at positions 5, 18, 19, 20
Please go through the items and note down their shrunken log2 fold change.
No unit in the answer, only the number.

q: # query: shrunken log2 fold change of entry RRIRTRPPRLPRPRPRPWSCPRP
a: -0.29

q: // shrunken log2 fold change lookup, key: RRIRWRPPRLPRPRPRPPESPRP
a: 0.225

q: Reported shrunken log2 fold change, sequence RRIRSRPPRLPRPRPRPYYTPRP : ____
a: -0.576

q: Data request, read-out shrunken log2 fold change, for RRIRARPPRLPRPRPRPNMTPRP
a: 0.147

q: Given RRIRHRPPRLPRPRPRPKSYPRP , state its recorded shrunken log2 fold change.
a: -0.245

q: # shrunken log2 fold change lookup, item RRIRPRPPRLPRPRPRPLHTPRP
a: -0.128

q: Look up shrunken log2 fold change for this sequence: RRIRWRPPRLPRPRPRPQIHPRP
a: -0.681

q: For the sequence shown here, RRIRMRPPRLPRPRPRPGMPPRP , give the reported shrunken log2 fold change.
a: 0.522

q: Consider the sequence shown here: RRIRLRPPRLPRPRPRPNFMPRP What is its recorded shrunken log2 fold change?
a: -0.117

q: Given RRIRARPPRLPRPRPRPGYQPRP , state its recorded shrunken log2 fold change.
a: 0.0478

q: Field request: shrunken log2 fold change | item: RRIRFRPPRLPRPRPRPRCMPRP
a: -0.124

q: GET /values?readout=shrunken log2 fold change&item= RRIRWRPPRLPRPRPRPLYCPRP
a: -0.22

q: Can you share its shrunken log2 fold change? I mean this sequence: RRIRWRPPRLPRPRPRPDLTPRP
a: 0.251

q: Reported shrunken log2 fold change for RRIRNRPPRLPRPRPRPTLGPRP : what is it?
a: 0.3

q: Reported shrunken log2 fold change for RRIRSRPPRLPRPRPRPMPQPRP : what is it?
a: 0.126

q: Quick check: shrunken log2 fold change of RRIRKRPPRLPRPRPRPCESPRP ?
a: -0.0138

q: Query (sequence): RRIRRRPPRLPRPRPRPQTNPRP ; field requested: shrunken log2 fold change
a: 0.257

q: Given RRIRPRPPRLPRPRPRPIEAPRP , state its recorded shrunken log2 fold change.
a: 0.0713

q: Which shrunken log2 fold change is listed for RRIRVRPPRLPRPRPRPQKGPRP ?
a: -0.036

q: Which shrunken log2 fold change reading was recorded for the sequence RRIRLRPPRLPRPRPRPCCLPRP ?
a: -0.293

q: Need shrunken log2 fold change of RRIRPRPPRLPRPRPRPLDDPRP , thanks.
a: 0.0437

q: Which measured shrunken log2 fold change value corresponds to RRIRYRPPRLPRPRPRPFMEPRP ?
a: -0.0943

q: Looking for the measured shrunken log2 fold change of RRIRIRPPRLPRPRPRPCCMPRP , can you help?
a: -0.614

q: Name the reported shrunken log2 fold change value associated with the sequence RRIRFRPPRLPRPRPRPIQRPRP
a: -0.107

q: Look up shrunken log2 fold change: RRIRGRPPRLPRPRPRPGVNPRP
a: 0.075

* * *

# System: Escherichia coli TOP10
# assay overview: shrunken log2 fold change of peptide-encoding DNA abundance (4.5 h post-induction vs induction); higher = less antimicrobial activity (less host growth inhibition)
# assay context: time post-induction: 4.5 h; library: site-saturation at positions 5, 18, 19, 20
For each entry below, report its shrunken log2 fold change value.
Lab note: jot the number down without any unit.

q: May I ask what shrunken log2 fold change has been recorded for RRIRDRPPRLPRPRPRPKATPRP ?
a: 0.00253

q: GET /values?readout=shrunken log2 fold change&item= RRIRQRPPRLPRPRPRPWMSPRP
a: -0.0167

q: Record request: shrunken log2 fold change value, item RRIRDRPPRLPRPRPRPIISPRP
a: 0.0102

q: Record request: shrunken log2 fold change value, item RRIRCRPPRLPRPRPRPWPDPRP
a: 0.0862

q: Any idea what shrunken log2 fold change was measured for RRIRGRPPRLPRPRPRPTDLPRP ?
a: -0.109

q: // returns reported shrunken log2 fold change for input RRIRMRPPRLPRPRPRPYEYPRP
a: 0.0662

q: Which shrunken log2 fold change value belongs to RRIRVRPPRLPRPRPRPSLCPRP ?
a: -0.233

q: Would you kindly share the measured shrunken log2 fold change for RRIRRRPPRLPRPRPRPPIHPRP ?
a: -0.11

q: Quick one: shrunken log2 fold change for RRIRMRPPRLPRPRPRPQMLPRP ?
a: 0.186

q: Look at this sequence and give its reported shrunken log2 fold change. RRIRKRPPRLPRPRPRPDYAPRP
a: 0.102

q: Which shrunken log2 fold change reading was recorded for the sequence RRIRYRPPRLPRPRPRPFYVPRP ?
a: -0.602

q: Fill blank: measured shrunken log2 fold change of the sequence RRIRQRPPRLPRPRPRPMCEPRP is ____.
a: -0.00149

q: Using the record for RRIRMRPPRLPRPRPRPYAKPRP , report its shrunken log2 fold change.
a: 0.00938

q: Param item = RRIRERPPRLPRPRPRPKQHPRP ; retrieve measured shrunken log2 fold change.
a: 0.241

q: I have this sequence here, RRIRKRPPRLPRPRPRPLCSPRP , and I need its recorded shrunken log2 fold change.
a: 0.0457

q: Which shrunken log2 fold change is listed for RRIRARPPRLPRPRPRPRWTPRP ?
a: 0.145

q: Query (sequence): RRIRHRPPRLPRPRPRPYHGPRP ; field requested: shrunken log2 fold change
a: -0.0161

q: Entry RRIRQRPPRLPRPRPRPRYEPRP has what shrunken log2 fold change?
a: -0.349

q: Can you look up the measured shrunken log2 fold change of RRIRSRPPRLPRPRPRPDHWPRP for me?
a: -0.0678

q: What value of measured shrunken log2 fold change is listed for RRIRLRPPRLPRPRPRPHDHPRP ?
a: 0.0691

q: # query: shrunken log2 fold change of entry RRIRGRPPRLPRPRPRPFTMPRP
a: -0.278

q: // query shrunken log2 fold change value for entry RRIRTRPPRLPRPRPRPEVGPRP
a: 0.0668

q: Any idea what its shrunken log2 fold change is? The sequence is RRIRDRPPRLPRPRPRPGDVPRP
a: 0.0601

q: Please give the measured shrunken log2 fold change for this sequence: RRIRLRPPRLPRPRPRPCWHPRP
a: -0.0884

* * *

# Tested on: Escherichia coli TOP10
# assay overview: shrunken log2 fold change of peptide-encoding DNA abundance (4.5 h post-induction vs induction); higher = less antimicrobial activity (less host growth inhibition)
# assay context: time post-induction: 4.5 h; library: site-saturation at positions 5, 18, 19, 20
Please respond with reported shrunken log2 fold change for every item in the list.
Lab note: write the figure by itself, no unit.

q: Give the measured shrunken log2 fold change of RRIRIRPPRLPRPRPRPPHSPRP .
a: -0.164

q: Name the reported shrunken log2 fold change value associated with the sequence RRIRMRPPRLPRPRPRPGTLPRP
a: -0.02

q: Data request, read-out shrunken log2 fold change, for RRIRGRPPRLPRPRPRPSWKPRP
a: 0.437

q: Entry RRIRARPPRLPRPRPRPNANPRP : reported shrunken log2 fold change = ?
a: 0.49

q: Recorded shrunken log2 fold change for RRIRQRPPRLPRPRPRPAYYPRP , please?
a: -0.514

q: Which shrunken log2 fold change value is on record for RRIRQRPPRLPRPRPRPESLPRP ?
a: -0.00178

q: # get_value(readout='shrunken log2 fold change', item= RRIRMRPPRLPRPRPRPNAHPRP )
a: 8.74e-05

q: Recorded shrunken log2 fold change for RRIRDRPPRLPRPRPRPTPWPRP , please?
a: 0.66

q: # query: shrunken log2 fold change of entry RRIRLRPPRLPRPRPRPHVDPRP
a: 0.0142

q: Entry under review: RRIRYRPPRLPRPRPRPICYPRP . Reported shrunken log2 fold change?
a: -0.691

* * *

# Tested on: Escherichia coli TOP10;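 further: peptides expressed intracellularly from a pBAD plasmid library in pooled LB shake-flask culture, induced with 0.3% L-arabinose, DNA abundance read by NGS, three biological replicates, DESeq2 with apeglm shrinkage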
# assay overview: shrunken log2 fold change of peptide-encoding DNA abundance (4.5 h post-induction vs induction); higher = less antimicrobial activity (less host growth inhibition)
# assay context: time post-induction: 4.5 h; library: site-saturation at positions 5, 18, 19, 20
Please respond with reported shrunken log2 fold change for every item in the list.
Just the number, please, no unit after it.

q: What shrunken log2 fold change value was documented for this sequence, RRIRFRPPRLPRPRPRPYFQPRP ?
a: -1.44

q: Look up shrunken log2 fold change for this sequence: RRIRPRPPRLPRPRPRPLFVPRP
a: -0.176

q: Which shrunken log2 fold change reading was recorded for the sequence RRIRTRPPRLPRPRPRPLMVPRP ?
a: -0.32
